These measurements were taken from patent US10343992B2.

Here's what we have: IC50 numbers for USP30 (Homo sapiens (Human)).

{"Compound": "Cn1cc(-c2ccc(C(=O)N[C@@H]3CCN(C#N)C3)cn2)cn1", "IC50": "100 to 1000 nM"}
{"Compound": "CN(C(=O)c1ccc(-c2ccccc2)cc1)C1CCN(C#N)C1 (stereo not drawn)", "IC50": "100 to 1000 nM"}
{"Compound": "Cc1nc(-c2ccc(C(=O)N[C@@H]3CCN(C#N)C3)nc2)cc(C(F)(F)F)n1", "IC50": "100 to 1000 nM"}
{"Compound": "COc1ccccc1-c1ccc(C(=O)NC2CCN(C#N)C2)cc1 (racemic)", "IC50": "< 100 nM"}
{"Compound": "COC1(c2ccccc2)CN(C(=O)N[C@@H]2CCN(C#N)C2)C1", "IC50": "100 to 1000 nM"}
{"Compound": "CN(C(=O)c1ccc2c(c1)CCN2c1nccc(C2CC2)n1)[C@@H]1CCN(C#N)C1", "IC50": "< 100 nM"}
{"Compound": "N#CN1CC[C@@H](NC(=O)c2cc(-c3ccccc3)[nH]n2)C1", "IC50": "< 100 nM"}
{"Compound": "N#CN1CCC(NC(=O)Nc2cccc(Cc3ccccc3)c2)C1 (stereo not drawn)", "IC50": "100 to 1000 nM"}
{"Compound": "N#CN1CC[C@@H](NC(=O)c2ccc(-c3cnc4nccn4c3)cc2F)C1", "IC50": "100 to 1000 nM"}
{"Compound": "CN(C(=O)c1cn2cc(-c3cnn(C)c3)ccc2n1)[C@@H]1CCN(C#N)C1", "IC50": "100 to 1000 nM"}
{"Compound": "Cc1noc(C)c1-c1ccc2c(C(=O)N[C@@H]3CCN(C#N)C3)nn(CC(C)C)c2c1", "IC50": "< 100 nM"}
{"Compound": "N#CN1CC[C@@H](NC(=O)c2n[nH]c3ccccc23)C1", "IC50": "100 to 1000 nM"}
{"Compound": "Cc1cn(-c2ccc(C(=O)N[C@@H]3CCN(C#N)C3)c(F)c2)cn1", "IC50": "100 to 1000 nM"}
{"Compound": "N#CN1CC[C@@H](NC(=O)c2ccc(Nc3nccc(C4CC4)n3)c(F)c2)C1", "IC50": "< 100 nM"}
{"Compound": "COc1ccccc1-c1cc(C(=O)N[C@@H]2CCN(C#N)C2)n[nH]1", "IC50": "< 100 nM"}
{"Compound": "CC(C)C(=O)N(C)c1cccc(C(=O)N[C@@H]2CCN(C#N)C2)c1", "IC50": "100 to 1000 nM"}
{"Compound": "Cc1nccc(-c2ccc(C(=O)N[C@@H]3CCN(C#N)C3)c(F)c2)n1", "IC50": "< 100 nM"}
{"Compound": "Cn1cc(-c2cnc(C(=O)N[C@@H]3CCN(C#N)C3)nc2)cn1", "IC50": "100 to 1000 nM"}

* * *

# Target or system: USP30 (Homo sapiens (Human), UniProt Q70CQ3)
# Sequence (Q70CQ3 57-517): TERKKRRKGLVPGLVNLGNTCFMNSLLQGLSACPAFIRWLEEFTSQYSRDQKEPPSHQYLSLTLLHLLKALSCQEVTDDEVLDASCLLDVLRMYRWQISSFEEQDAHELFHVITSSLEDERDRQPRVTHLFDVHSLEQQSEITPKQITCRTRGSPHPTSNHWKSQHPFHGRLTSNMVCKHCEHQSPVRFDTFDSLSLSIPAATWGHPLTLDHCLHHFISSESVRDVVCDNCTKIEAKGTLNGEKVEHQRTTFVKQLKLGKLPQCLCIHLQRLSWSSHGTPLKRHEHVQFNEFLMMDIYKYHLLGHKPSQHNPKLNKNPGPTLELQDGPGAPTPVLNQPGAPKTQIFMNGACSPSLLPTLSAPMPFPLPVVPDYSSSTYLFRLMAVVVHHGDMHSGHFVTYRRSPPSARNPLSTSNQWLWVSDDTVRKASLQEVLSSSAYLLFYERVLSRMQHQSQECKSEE
# Experimental details: USP30 biochemical FP or FI IC50 assay
# Assay context: read-out: IC50 range
Entries annotated with measured IC50
Recorded metric: IC50

{"Compound": "Cn1cc(-c2ccc3nc(C(=O)N[C@@H]4CCN(C#N)C4)cn3c2)cn1 [Example 124]", "Target or system": "USP30 (Homo sapiens (Human), UniProt Q70CQ3)", "Recorded metric": "IC50", "Value measured": "0.1 to 1 µM"}
{"Compound": "N#CN1CC[C@@H](NC(=O)N2CC(c3nc4ccccc4[nH]3)C2)C1 [Example 134]", "Target or system": "USP30 (Homo sapiens (Human), UniProt Q70CQ3)", "Recorded metric": "IC50", "Value measured": "0.1 to 1 µM"}
{"Compound": "N#CN1CC[C@@H](NC(=O)N2CC(c3ccn(-c4ccccc4)n3)C2)C1 [Example 234]", "Target or system": "USP30 (Homo sapiens (Human), UniProt Q70CQ3)", "Recorded metric": "IC50", "Value measured": "< 0.1 µM"}
{"Compound": "Cn1cc(-c2ccc(C(=O)NC3(C)CCN(C#N)C3)c(F)c2)cn1 (stereo not shown) [Example 94]", "Target or system": "USP30 (Homo sapiens (Human), UniProt Q70CQ3)", "Recorded metric": "IC50", "Value measured": "1 to 10 µM"}
{"Compound": "C[C@@H]1CN(c2cc(C(=O)N[C@@H]3CCN(C#N)C3)c(F)cn2)C[C@H](C)O1 [Example 140]", "Target or system": "USP30 (Homo sapiens (Human), UniProt Q70CQ3)", "Recorded metric": "IC50", "Value measured": "0.1 to 1 µM"}
{"Compound": "COc1c(-c2cnn(C)c2)ccc(C(=O)N[C@@H]2CCN(C#N)C2)c1F [Example 115]", "Target or system": "USP30 (Homo sapiens (Human), UniProt Q70CQ3)", "Recorded metric": "IC50", "Value measured": "0.1 to 1 µM"}
{"Compound": "N#CN1CCC(NC(=O)c2ccnc(N3CCc4ccccc4C3)c2)C1 (stereo not shown) [Example 27]", "Target or system": "USP30 (Homo sapiens (Human), UniProt Q70CQ3)", "Recorded metric": "IC50", "Value measured": "0.1 to 1 µM"}
{"Compound": "N#CN1CC[C@@H](NC(=O)N2CCC(c3ccccc3)C2)C1 (stereo partly shown) [Example 46]", "Target or system": "USP30 (Homo sapiens (Human), UniProt Q70CQ3)", "Recorded metric": "IC50", "Value measured": "0.1 to 1 µM"}
{"Compound": "CN(C(=O)c1nc2ccc(-c3cnn(C)c3)cc2[nH]1)[C@@H]1CCN(C#N)C1 [Example 88]", "Target or system": "USP30 (Homo sapiens (Human), UniProt Q70CQ3)", "Recorded metric": "IC50", "Value measured": "0.1 to 1 µM"}
{"Compound": "N#CN1CC[C@@H](NC(=O)c2ncc(-c3ccn4nccc4n3)cc2F)C1 [Example 186]", "Target or system": "USP30 (Homo sapiens (Human), UniProt Q70CQ3)", "Recorded metric": "IC50", "Value measured": "0.1 to 1 µM"}
{"Compound": "Cc1cc(-c2cccc(NC(=O)N3CC[C@@H]4CN(C#N)C[C@@H]43)c2)ccn1 [Example 241]", "Target or system": "USP30 (Homo sapiens (Human), UniProt Q70CQ3)", "Recorded metric": "IC50", "Value measured": "< 0.1 µM"}
{"Compound": "Cc1cc(-c2cc(C(=O)N[C@@H]3CCN(C#N)C3)on2)ccn1 [Example 270]", "Target or system": "USP30 (Homo sapiens (Human), UniProt Q70CQ3)", "Recorded metric": "IC50", "Value measured": "0.1 to 1 µM"}
{"Compound": "Cc1noc(C)c1-c1ccc2cc(C(=O)N[C@@H]3CCN(C#N)C3)[nH]c2c1 [Example 128]", "Target or system": "USP30 (Homo sapiens (Human), UniProt Q70CQ3)", "Recorded metric": "IC50", "Value measured": "< 0.1 µM"}
{"Compound": "CN(C(=O)N1CCc2ccccc21)[C@@H]1CCN(C#N)C1 [Example 265]", "Target or system": "USP30 (Homo sapiens (Human), UniProt Q70CQ3)", "Recorded metric": "IC50", "Value measured": "1 to 10 µM"}
{"Compound": "N#Cc1ccc(-c2ccc3nc(C(=O)N[C@@H]4CCN(C#N)C4)cn3c2)cc1 [Example 117]", "Target or system": "USP30 (Homo sapiens (Human), UniProt Q70CQ3)", "Recorded metric": "IC50", "Value measured": "0.1 to 1 µM"}
{"Compound": "N#CN1C[C@H]2CCN(C(=O)c3cn(-c4ccccc4)cn3)[C@H]2C1 (racemic) [Example 54]", "Target or system": "USP30 (Homo sapiens (Human), UniProt Q70CQ3)", "Recorded metric": "IC50", "Value measured": "0.1 to 1 µM"}
{"Compound": "Cc1nc2nccc-2c(-c2ccc(C(=O)N[C@@H]3CCN(C#N)C3)c(F)c2)[nH]1 [Example 184]", "Target or system": "USP30 (Homo sapiens (Human), UniProt Q70CQ3)", "Recorded metric": "IC50", "Value measured": "< 0.1 µM"}
{"Compound": "N#CN1CC[C@@H](NC(=O)N2CC(c3ccnc(-c4ccccc4)n3)C2)C1 [Example 236]", "Target or system": "USP30 (Homo sapiens (Human), UniProt Q70CQ3)", "Recorded metric": "IC50", "Value measured": "0.1 to 1 µM"}
{"Compound": "N#CN1C[C@H]2CCN(C(=O)c3cc(-c4ccccc4)n[nH]3)[C@H]2C1 (racemic) [Example 52]", "Target or system": "USP30 (Homo sapiens (Human), UniProt Q70CQ3)", "Recorded metric": "IC50", "Value measured": "0.1 to 1 µM"}
{"Compound": "N#CN1CC[C@@H](NC(=O)N2CC(Oc3ccccc3)C2)C1 [Example 133]", "Target or system": "USP30 (Homo sapiens (Human), UniProt Q70CQ3)", "Recorded metric": "IC50", "Value measured": "0.1 to 1 µM"}
{"Compound": "Cn1cc(-c2ccc3c(C(=O)N[C@@H]4CCN(C#N)C4)n[nH]c3c2)cn1 [Example 127]", "Target or system": "USP30 (Homo sapiens (Human), UniProt Q70CQ3)", "Recorded metric": "IC50", "Value measured": "0.1 to 1 µM"}
{"Compound": "N#CN1CC[C@@H](NC(=O)c2cc(-c3ccccn3)no2)C1 [Example 66]", "Target or system": "USP30 (Homo sapiens (Human), UniProt Q70CQ3)", "Recorded metric": "IC50", "Value measured": "0.1 to 1 µM"}
{"Compound": "N#CN1C[C@H]2CCN(C(=O)Nc3cc(C(F)(F)F)ccc3F)[C@H]2C1 [Example 201]", "Target or system": "USP30 (Homo sapiens (Human), UniProt Q70CQ3)", "Recorded metric": "IC50", "Value measured": "< 0.1 µM"}
{"Compound": "COc1cc(C(=O)N[C@@H]2CCN(C#N)C2)ccc1-c1ccnc(C)c1 [Example 40]", "Target or system": "USP30 (Homo sapiens (Human), UniProt Q70CQ3)", "Recorded metric": "IC50", "Value measured": "< 0.1 µM"}
{"Compound": "N#CN1CC[C@@H](N2CCN(c3cccc(N4CCOCC4)c3)C2=O)C1 [Example 210]", "Target or system": "USP30 (Homo sapiens (Human), UniProt Q70CQ3)", "Recorded metric": "IC50", "Value measured": "0.1 to 1 µM"}
